The reader will find reported OD450 nm values listed item by item below.
# EXPERIMENTAL_SYSTEM: T1, human GPC3-His protein (human, UniProt P51654 25-559)
# T1 construct: Bought protein; also called human GPC3 protein; not shown: His tag
# PROTOCOL_NOTES: ELISA, coated human GPC3, antibody 0.01 nM;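 also: Plate-bound antigen coated at 1 µg/mL, antibody incubated 2 h at 37 °C, binding detected by HRP-conjugated secondary antibody with TMB substrate, read as absorbance at 450 nm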
The figure you give is taken to be in OD450; do not add the unit.

Here's what some known entries look like.
// lookup OD450 nm for F1.2.14 human-murine chimeric antibody (antibody, human IgG1, kappa, V domains shown) VH: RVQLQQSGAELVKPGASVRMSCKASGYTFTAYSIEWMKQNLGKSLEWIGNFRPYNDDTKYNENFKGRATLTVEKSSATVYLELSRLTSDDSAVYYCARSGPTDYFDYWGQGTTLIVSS VL: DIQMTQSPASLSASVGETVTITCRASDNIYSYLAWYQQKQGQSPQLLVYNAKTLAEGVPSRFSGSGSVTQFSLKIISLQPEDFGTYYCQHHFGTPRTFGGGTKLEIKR
0.17

// lookup OD450 nm for F1.145.22 human-murine chimeric antibody (antibody, human IgG1, kappa, V domains shown) VH: QVQLQQSGTDLARPGASVKLSCKASGYTFTSFGISWVKQRTGQGLEWIGEIYPRSGSPYYNEKFTGKATLTADKSSSTAYMELRSLTSEDSAVYFCAKDFGSSYVFDYWGQGTALTVSS VL: DIQMTQSPASLSASVGETVTITCRASENIYSYLTWYQQKQGKSPQLLVYNAKTLAEGVPSRFSGSGSGTQFSLKINSLQPEDFGTYYCQHHYGTPPTFGTGTKLDLKR
0.22

// lookup OD450 nm for F1.73.9 human-murine chimeric antibody (antibody, human IgG1, kappa, V domains shown) VH: QVQLKQSGAELVRPGASVKLSCKASGYTFTDYYINWVKQRPGQGLEWIARIYPGSGNTYYNEKFKGKATLTAEKSSSTAYMQFSSLTSEDSAVYFCACSTYYTMDYWGQGTSVTVSS VL: QIVLTQSPAIMSASLGERVTMTCTASSGVSSSYLHWYQQKPGSSPKLWIYTTSNLASGVPARFSGSGSGTSYSLTISSMEAEDAATYYCHQYHRSPYTFGGGTKLEIKR
0.23

// lookup OD450 nm for F1.92.17 human-murine chimeric antibody (antibody, human IgG1, kappa, V domains shown) VH: EVQLQQSGPELVKPGASVKMSCKASGYTFTDYNMHWVRQSHGKSLEWIGYINPNNGDTIYNQNFKGKATLTVNKSSSTAYMELRSLTSEDSAVYYCSRTITYYYSMDYWGPGTSVTVSS VL: QIVLTQSPALMSASPGEKVTMTCSASSSVSYMYWYQQKPRSSPKPWIYLTSNLASGVPARFSGSGSGTSYSLTISSMEAEDAATYYCQQWSSNPLTFGAGTKLELKR
0.11

# next binder below
// lookup OD450 nm for F2.169.2 human-murine chimeric antibody (antibody, human IgG1, kappa, V domains shown) VH: EVQLVETGGGLVQPKGSLKLSCAASGFSFNTNAMNWVRQAPGKGLEWVARIRSKSNNYATYYADSVKDRFTISRDDSQSMLYLQMNNLKTEDTAMYYCVRDGYYVLFAYWGQGTLVTVSA VL: DVLMTQTPLSLPVSLGDQASISCRFSQSIVNSNGNTYLEWFLQKPGQSPKLLIYKVSNRFSGVPDRFSGSGSGTDFTLKISRVEAEDLGVYYCFQGSHVPFTFGTGTKLEIKR
0.27
